Biological target: T1, Recombinant HLA-DRB1*1501 protein (human)
T1 construct: also called DR1501
Test: competition with biotinylated MBP84-102, europium-streptavidin
QUANTITY NAME: pIC50
As a rule, pIC50 stands for the negative log10 of the concentration, concentration in M.

Given the binder ENRSWYLTENIQCFLPNPAG [FVIII581-600,593C peptide] , what is its reported pIC50? 4.25
